# System: Wild type
# EXPERIMENTAL_PROTOCOL: S. aureus survival, RN4220 and DeltatarO strains – OD600, teichoic acid synthesis inhibitors, primary screen (AID 463173)
# TEST_PARAMETERS: S. aureus RN4220 wild type/DeltatarO growth, OD600, 18 h, hits give low values, screened at 18.75 µg/mL (by protocol)
Hit rate of the full screen: of about 52,000 compounds, about 1,700 (3.3%) were called active. This excerpt belongs to a sample that is enriched for actives.
METRIC: survival (%)
Answer in %, number only, no unit symbol.

Asked: Please give the measured survival for this compound: CC(C)CC(=O)NCC(c1ccc2c(c1)OCO2)N1CCN(c2ccccc2F)CC1 (stereo not given)
Given back: 76

Asked: How about this compound: CC(=O)Nc1ccc(S(=O)(=O)N2CCC(Oc3ccc(-n4cnnn4)cc3)CC2)cc1
Given back: 118

Asked: How about this compound: COc1ccc(-c2cn3nc(N4CCC(C(=O)Nc5ccc(Cl)cc5C)CC4)sc3n2)cc1
Given back: 78

Asked: How about this compound: CN(C)CCNC(=O)Cc1ccc(NC(=O)N2CCCCc3ccccc32)cc1
Given back: 75

Asked: How about this compound: O=C1CCSC2(C(=O)N(Cc3ccc(F)cc3)c3ccccc32)N1c1cccc(F)c1 (stereo not given)
Given back: 74

====

# Test system: Wild type
# EXPERIMENTAL_PROTOCOL: S. aureus survival, RN4220 and DeltatarO strains – OD600, teichoic acid synthesis inhibitors, primary screen (AID 463173)
# TEST_PARAMETERS: S. aureus RN4220 wild type/DeltatarO growth, OD600, 18 h, hits give low values, screened at 18.75 µg/mL (by protocol)
In all, about 52,000 compounds went through this assay and about 1,700 (3.3%) were called active. This excerpt belongs to a sample that is enriched for actives.
Could you please mark True for values of survival below 70% and False for values at or above it?

Asked: State whether 70% exceeds survival recorded for CCc1nn2c(-c3ccco3)ccnc2c1-c1ccccc1 .
Given back: False

Asked: How about this molecule: Cc1ccc(C(=O)N2CCN(c3ccccc3)CC2)cc1NC(=O)c1nsc2ccccc12
Given back: False

Asked: How about this molecule: CN=C1SC(CC(=O)NC(N)=O)C(=O)N1C (stereo unspecified)
Given back: False

Asked: How about this molecule: CCc1nn2c(-c3ccccc3OC)ccnc2c1-c1ccccc1
Given back: True

Asked: How about this molecule: Cc1ccccc1-c1ccnc2c(-c3ccc(F)cc3)c(C)nn12
Given back: True

Asked: How about this molecule: COc1cccc(-c2ccnc3c(-c4ccc(F)cc4)c(C)nn23)c1
Given back: False

Asked: How about this molecule: CCc1nn2c(-c3ccccc3OC)ccnc2c1-c1ccc(F)cc1
Given back: True

Asked: How about this molecule: Cc1nn2c(-c3ccco3)ccnc2c1-c1ccc(F)cc1
Given back: False

Asked: How about this molecule: COc1ccccc1-c1ccnc2c(-c3ccc(Br)cc3)c(C)nn12
Given back: False

====

# System: Wild type
# EXPERIMENTAL_PROTOCOL: S. aureus survival, RN4220 and DeltatarO strains – OD600, teichoic acid synthesis inhibitors, primary screen (AID 463173)
# TEST_PARAMETERS: S. aureus RN4220 wild type/DeltatarO growth, OD600, 18 h, hits give low values, screened at 18.75 µg/mL (by protocol)
Hit rate of the full screen: of about 52,000 compounds, about 1,700 (3.3%) were called active. Only a selection was taken, and actives are over-represented in it overall.
Would you kindly list survival for each of these molecules?
Answer in %, number only, no unit symbol.

Asked: Lab note: need survival with Wild type for entry COc1ccc(-c2nc(C)c(CCNS(=O)(=O)c3cc(Cl)ccc3Cl)s2)cc1 , please look it up.
Given back: 87

Asked: How about this molecule: Cc1ccc(-c2noc(CCC(=O)N(C)c3ccccc3F)n2)cc1
Given back: 4

Asked: How about this molecule: CN(C(=O)CCc1nc(-c2ccccc2F)no1)c1ccc(Cl)cc1
Given back: 68

Asked: How about this molecule: CCOc1ccc(N(CC)C(=O)CCc2nc(-c3ccccc3F)no2)cc1
Given back: 39

Asked: How about this molecule: O=C(Nc1c(C(=O)Nc2ccc(F)cc2)oc2ccccc12)c1ccccc1F
Given back: 30

Asked: How about this molecule: CCCN(C(=O)Cc1nc(-c2ccc(OC)cc2)no1)c1ccccc1C
Given back: 87

Asked: How about this molecule: COc1ccc(-c2noc(CCC(=O)N(C)c3cc(Cl)ccc3OC)n2)cc1
Given back: 20

Asked: How about this molecule: COc1ccc(-c2nc3c4ccccc4n(CC(=O)N4CCN(c5ccccc5F)CC4)c(=O)n3n2)cc1
Given back: 91

Asked: How about this molecule: CCOC(=O)c1ccccc1NC(=O)CCc1nc(-c2ccc(C)cc2)no1
Given back: 27

Asked: How about this molecule: CC(CN1CCCC1)OC(=O)c1ccc(F)cc1 (stereo not given)
Given back: 109
